Where do these numbers come from? They come from patent US9035059B2.

Entries and their log10 IC50 values follow.
Target: human MGAT2 (Homo sapiens (Human), UniProt Q3SYC2)
Sequence (Q3SYC2 whole entry): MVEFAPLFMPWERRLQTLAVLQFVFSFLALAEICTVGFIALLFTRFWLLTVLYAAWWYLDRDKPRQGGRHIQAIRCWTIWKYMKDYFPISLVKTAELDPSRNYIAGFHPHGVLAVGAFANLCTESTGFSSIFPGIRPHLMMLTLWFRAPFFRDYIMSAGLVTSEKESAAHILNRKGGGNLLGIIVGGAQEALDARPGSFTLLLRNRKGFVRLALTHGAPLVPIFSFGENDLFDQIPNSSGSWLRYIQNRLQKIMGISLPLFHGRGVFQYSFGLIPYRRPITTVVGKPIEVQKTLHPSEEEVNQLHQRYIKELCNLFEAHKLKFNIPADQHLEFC
Experiment: Test Example 1: Test of MGAT2 inhibitory action (human MGAT2 enzyme fraction from Sf9 cells, free CoA detected by CPM fluorescence)
Format: biochemical
Conditions: human MGAT2 enzyme fraction expressed in Sf9 insect cells, 0.5 μg/ml, 2-monooleoyl glycerol 0.78 μM, oleoyl-CoA 5.3 μM, room temperature 20 min, read-out: Activity Value [nM] (IC50, concentration at which 50% of produced free CoA was inhibited)
Experimental: The MGAT2 inhibitory action of the inventive compound was measured by the methods described in Test Examples as shown below. The MGAT enzyme activity was measured based on the amount of an indicator, free Coenzyme A (CoA) which is generated by the reaction shown below, using a sulfhydryl reactive pigment (7-diethylamino-3-(4-maleimidophenyl)-4-methylcoumarin; hereinafter, sometimes abbreviated as CPM). […]
Quick note: numbers are log10 of IC50, with nM as the unit.

Q: # lookup: log10 IC50 of CC(C)(C)c1ccc(CCN2CCc3cc(S(=O)(=O)Nc4ccc(OCCCCc5ccccc5)cc4F)ccc3C2)cc1
A: 1.85

Q: # lookup: log10 IC50 of O=C(c1ccc(C(F)(F)F)nc1)N1CCc2cc(S(=O)(=O)Nc3ccc(CCCC4CCCC4)cc3F)ccc2C1
A: 2.19

Q: # lookup: log10 IC50 of CC(c1ccc(C(C)(C)C)nc1)N1CCc2cc(S(=O)(=O)Nc3ccc(OCCCc4ccccc4)cc3F)ccc2C1 (stereo not shown)
A: 2.08

Q: # lookup: log10 IC50 of CC(C)(C)c1ccc(NC(=O)N2CCc3cc(S(=O)(=O)Nc4ccc(OCCC5CCOCC5)cc4F)ccc3C2)cc1
A: 2.25

Q: # lookup: log10 IC50 of CCCCCCCCOc1ccc(NS(=O)(=O)c2ccc3c(c2)CCN(Cc2ccc(C(C)(C)C)nc2)C3)c(F)c1
A: 1.41

Q: # lookup: log10 IC50 of C/C=C\CCCOc1ccc(NS(=O)(=O)c2ccc3c(c2)CN(C(=O)Nc2ccc(C(C)(C)C)cc2)C3)c(F)c1
A: 2.11

* * *

Molecular target: UniProt:Q3SYC2
Assay: Test Example 1: Test of MGAT2 inhibitory action (human MGAT2 enzyme fraction from Sf9 cells, free CoA detected by CPM fluorescence)
Format: biochemical
Conditions: human MGAT2 enzyme fraction expressed in Sf9 insect cells, 0.5 μg/ml, 2-monooleoyl glycerol 0.78 μM, oleoyl-CoA 5.3 μM, room temperature 20 min, read-out: Activity Value [nM] (IC50, concentration at which 50% of produced free CoA was inhibited)
Procedure: The MGAT2 inhibitory action of the inventive compound was measured by the methods described in Test Examples as shown below. The MGAT enzyme activity was measured based on the amount of an indicator, free Coenzyme A (CoA) which is generated by the reaction shown below, using a sulfhydryl reactive pigment (7-diethylamino-3-(4-maleimidophenyl)-4-methylcoumarin; hereinafter, sometimes abbreviated as CPM). […]
Entries and their log10(IC50) values follow.
Quick note: numbers are log10 of IC50, with nM as the unit.

Some solved cases for reference:
CC(c1ccc(C(C)(C)C)nc1)N1CCc2cc(S(=O)(=O)Nc3ccc(OCCCCCc4ccccc4)cc3F)ccc2C1 (stereo not shown)    1.15
O=S(=O)(Nc1ccc(CCCC2CCCC2)cc1F)c1ccc2c(c1)CCN(Cc1ccc(C(F)(F)F)nc1)C2    2.26

Q: # lookup: log10(IC50) of CCCCCCOc1ccc(NS(=O)(=O)c2ccc3c(c2)CCN(CCc2ccc(C(C)(C)C)cc2)C3)c(F)c1
A: 2.12

Q: # lookup: log10(IC50) of O=S(=O)(Nc1ccc(CCCC2CCCC2)cc1F)c1ccc2c(c1)CCN(Cc1ccc(OC(F)(F)C(F)F)cc1)C2
A: 2.44

Q: # lookup: log10(IC50) of COc1ccc(OCCOc2ccc(NS(=O)(=O)c3ccc4c(c3)CN(C(=O)Nc3ccc(C(C)(C)C)cc3)C4)c(F)c2)cc1
A: 2.08

Q: # lookup: log10(IC50) of CC(C)(C)c1ccc(NC(=O)N2Cc3ccc(S(=O)(=O)Nc4ccc(OCCCC5CCCC5)cc4F)cc3C2)cc1
A: 0.60

Q: # lookup: log10(IC50) of CCCCCCCc1ccc(NS(=O)(=O)c2ccc3c(c2)CCN(CCc2ccc(C(C)(C)C)cc2)C3)c(F)c1
A: 1.54
